Cited source: patent US20100196321A1

# System: sub-genomic HCV NS3-NS5B replicon of genotype 1b (ET subline) in Huh-7 cells
# measurement.protocol: Replicon Luciferase Cell Based Assay, genotype 1b
# Parameters: species or system HCV genotype 1b
# condition: Hepatitis C virus, Huh-7, 48 h, read-out: Genotype 1b (IC50 μM)
# Protocol: A 10 mM stock solution in DMSO of each test compound was further diluted in DMSO in the first row of a 384-well, V-bottom microplate, to give 100 times the top concentration of the required dilution series. […] Potency: The luminescence values from all compound-free wells containing cells were averaged to obtain a positive control value. The mean luminescence value from the compound-free wells that had received no cells was used to provide the negative (background) control value. […]
outcome.measure: IC50

given.smiles: COc1ccc2c(O[C@@H]3C[C@H]4C(=O)N[C@]5(C(=O)NS(=O)(=O)C6CC6)C[C@H]5/C=C\CCCCC[C@H](NC(=O)N5CCCCC5)C(=O)N4C3)cc(-c3nc(C4CC4)cs3)nc2c1C
IC50: < 0.01 µM

Shifting focus to the compound that follows.
Just so you know, measured IC50 for "COc1ccc2c(O[C@@H]3C[C@H]4C(=O)N[C@]5(C(=O)NS(=O)(=O)C6CC6)C[C@H]5/C=C\CCCCC[C@H](NC(=O)N5CCCC5)C(=O)N4C3)cc(-c3nc(C(C)C)cs3)nc2c1C" came out at < 0.01 µM

* * *

# System: HCV mutant replicon D168A
# measurement.protocol: HCV PI Transient Replicon Assay, D168A
# Assay type: cell-based
# condition: Hepatitis C virus, 72 h, read-out: D168A EC50 values (nM)
outcome.measure: EC50 (nM)
Supply the numeric figure in nM, leaving out any unit text.

given.smiles: COc1ccc2c(O[C@@H]3C[C@H]4C(=O)N[C@]5(C(=O)NS(=O)(=O)C6CC6)C[C@H]5/C=C\CCCCC[C@H](NC(=O)N5CCCCC5)C(=O)N4C3)cc(-c3nc(C(C)C)cs3)nc2c1C
outcome.measure: EC50
observed.measurement: 24.8
//
given.smiles: CC(C)(C)OC(=O)N[C@H]1CCCCC/C=C\[C@@H]2C[C@@]2(C(=O)NS(=O)(=O)C2CC2)NC(=O)[C@@H]2C[C@@H](OC(=O)N3Cc4cccc(F)c4C3)CN2C1=O
outcome.measure: EC50
observed.measurement: 54.4

// switching to the query molecule
GET /value?item= "COc1ccc2c(O[C@@H]3C[C@H]4C(=O)N[C@]5(C(=O)NS(=O)(=O)C6CC6)C[C@H]5/C=C\CCCCN(C)C(=O)[C@@H]4C3)cc(-c3nc(C(C)C)cs3)nc2c1C" &field=EC50 returns 161

* * *

# Tested on: sub-genomic HCV NS3-NS5B replicon of genotype 1b (ET subline) in Huh-7 cells
# measurement.protocol: Replicon Luciferase Cell Based Assay, genotype 1b
# Parameters: species or system HCV genotype 1b
# condition: Hepatitis C virus, Huh-7, 48 h, read-out: Genotype 1b (IC50 μM)
outcome.measure: IC50

Consider the worked cases shown below.
compound: COc1ccc2c(O[C@@H]3C[C@H]4C(=O)N[C@]5(C(=O)NS(=O)(=O)C6CC6)C[C@H]5/C=C\CCCCC[C@H](NC(=O)N5CCC(c6ccccc6)CC5)C(=O)N4C3)cc(-c3nc(C(C)C)cs3)nc2c1C [Example 20]
IC50: < 0.01 µM
//
compound: COc1ccc2c(O[C@@H]3C[C@H]4C(=O)N[C@]5(C(=O)NS(=O)(=O)C6CC6)C[C@H]5/C=C\CCCCC[C@H](NC(=O)N5CC6CCCC6C5)C(=O)N4C3)cc(-c3nc(C(C)C)cs3)nc2c1C (stereo partly drawn) [Example 24]
IC50: < 0.01 µM
//
compound: COc1ccc2c(O[C@@H]3C[C@H]4C(=O)N[C@]5(C(=O)NS(=O)(=O)C6CC6)C[C@H]5/C=C\CCCCC[C@H](NC(=O)N5CCOCC5)C(=O)N4C3)cc(-c3nc(C(C)C)cs3)nc2c1C [Example 14]
IC50: < 0.01 µM
//
compound: COc1ccc2c(O[C@@H]3C[C@H]4C(=O)N[C@]5(C(=O)NS(=O)(=O)C6CC6)C[C@H]5/C=C\CCCCC[C@H](NC(=O)N5CCCC5)C(=O)N4C3)cc(-c3nc(C4CC4)cs3)nc2c1C [Example 30]
IC50: < 0.01 µM
//
compound: COc1ccc2c(O[C@@H]3C[C@H]4C(=O)N[C@]5(C(=O)NS(=O)(=O)C6CC6)C[C@H]5/C=C\CCCCC[C@H](NC(=O)N5CCC5)C(=O)N4C3)cc(-c3nc(C(C)C)cs3)nc2c1C [Example 18]
IC50: < 0.01 µM
//
compound: COc1ccc2c(O[C@@H]3C[C@H]4C(=O)N[C@]5(C(=O)NS(=O)(=O)C6CC6)C[C@H]5/C=C\CCCCC[C@H](NC(=O)N(C)C(C)(C)C)C(=O)N4C3)cc(-c3nc(C4CC4)cs3)nc2c1C [Example 9]
IC50: < 0.01 µM

Tested on sub-genomic HCV NS3-NS5B replicon of genotype 1b (ET subline) in Huh-7 cells, the item COc1ccc2c(O[C@@H]3C[C@H]4C(=O)N[C@]5(C(=O)NS(=O)(=O)C6CC6)C[C@H]5/C=C\CCCCC[C@H](NC(N)=O)C(=O)N4C3)cc(-c3nc(C(C)C)cs3)nc2c1C [Example 3] showed IC50 equal to < 0.01 µM

Tested on sub-genomic HCV NS3-NS5B replicon of genotype 1b (ET subline) in Huh-7 cells: CCN(CC)C(=O)N[C@H]1CCCCC/C=C\[C@@H]2C[C@@]2(C(=O)NS(=O)(=O)C2CC2)NC(=O)[C@@H]2C[C@@H](Oc3cc(-c4nc(C(F)(F)F)cs4)nc4c(Cl)c(OC)ccc34)CN2C1=O [Example 29] . Observed IC50: < 0.01 µM

Sample COc1ccc2c(O[C@@H]3C[C@H]4C(=O)N[C@]5(C(=O)NS(=O)(=O)C6CC6)C[C@H]5/C=C\CCCCC[C@H](NC(=O)N(C)C)C(=O)N4C3)cc(-c3nc(C4CC4)cs3)nc2c1C [Example 6] , system: sub-genomic HCV NS3-NS5B replicon of genotype 1b (ET subline) in Huh-7 cells. Its IC50 is < 0.01 µM
